Each record here notes measured normalised viability.
System: MDA-MB-453
Test: normalised viability (% of control), CellTiter-Blue; higher = more viable cells (about 100 = DMSO control)
Settings: incubation time: 72 h

[
  {
    "Molecule": "CN1CCN(c2nc(C3=C(c4c[nH]c5ccccc45)C(=O)NC3=O)c3ccccc3n2)CC1 [Sotrastaurin] (10000 nM)",
    "normalised viability, %": 75.6
  },
  {
    "Molecule": "CC/C(=C(\\c1ccccc1)c1ccc(OCCN(C)C)cc1)c1ccccc1 [Tamoxifen] (10000 nM)",
    "normalised viability, %": 17.4
  },
  {
    "Molecule": "NC(=O)NO [Hydroxyurea] (100000 nM)",
    "normalised viability, %": 91.5
  },
  {
    "Molecule": "N[C@@H](Cc1ccc(N(CCCl)CCCl)cc1)C(=O)O [Melphalan] (990 nM)",
    "normalised viability, %": 95.8
  },
  {
    "Molecule": "Cn1nnc2c(C(N)=O)ncn2c1=O [Temozolomide] (10000 nM)",
    "normalised viability, %": 100
  },
  {
    "Molecule": "CC[C@@H]1C(=O)N(C)c2cnc(Nc3ccc(C(=O)N[C@H]4CC[C@H](N5CCN(CC6CC6)CC5)CC4)cc3OC)nc2N1C(C)C [Volasertib] (1000 nM)",
    "normalised viability, %": 30.7
  },
  {
    "Molecule": "CCN(CC)CCOc1ccc(C(=C(Cl)c2ccccc2)c2ccccc2)cc1 [Clomifene] (10000 nM)",
    "normalised viability, %": 7.39
  },
  {
    "Molecule": "NC1(c2ccc(-c3nc4ccn5c(=O)[nH]nc5c4cc3-c3ccccc3)cc2)CCC1 [MK-2206] (1000 nM)",
    "normalised viability, %": 11
  },
  {
    "Molecule": "Cc1cc2c(F)c(Oc3ncnn4cc(OC[C@@H](C)O)c(C)c34)ccc2[nH]1 [Brivanib] (1000 nM)",
    "normalised viability, %": 99.1
  }
]

----------
Tested on: MDA-MB-453
Assay: normalised response (% of control), CellTox Green; higher = less cell death (100 = DMSO, 0 = benzethonium chloride kill control)
Conditions: incubation time: 72 h
Observed Property: normalised response (%)

[
  {
    "Compound": "O=C(c1cc(Cc2n[nH]c(=O)c3ccccc23)ccc1F)N1CCN(C(=O)C2CC2)CC1 [Olaparib] (1000 nM)",
    "Tested On": "MDA-MB-453",
    "Observed Property": "normalised response",
    "Measurement Units": "%",
    "Observed Result": 112
  },
  {
    "Compound": "Cc1cc2c(F)c(Oc3ncnn4cc(OC[C@@H](C)O)c(C)c34)ccc2[nH]1 [Brivanib] (100 nM)",
    "Tested On": "MDA-MB-453",
    "Observed Property": "normalised response",
    "Measurement Units": "%",
    "Observed Result": 103
  },
  {
    "Compound": "CC(C)NC[C@@H](C(=O)N1CCN(c2ncnc3c2[C@H](C)C[C@H]3O)CC1)c1ccc(Cl)cc1 [GDC-0068] (100 nM)",
    "Tested On": "MDA-MB-453",
    "Observed Property": "normalised response",
    "Measurement Units": "%",
    "Observed Result": 107
  },
  {
    "Compound": "CCCCCOC(=O)Nc1nc(=O)n([C@@H]2O[C@H](C)[C@@H](O)[C@H]2O)cc1F [Capecitabine] (1000 nM)",
    "Tested On": "MDA-MB-453",
    "Observed Property": "normalised response",
    "Measurement Units": "%",
    "Observed Result": 103
  },
  {
    "Compound": "Cn1cc(C[C@@H](N)C(=O)O)c2ccccc21 [1-methyl-D-tryptophan] (500 nM)",
    "Tested On": "MDA-MB-453",
    "Observed Property": "normalised response",
    "Measurement Units": "%",
    "Observed Result": 103
  },
  {
    "Compound": "Cn1cc(C[C@@H](N)C(=O)O)c2ccccc21 [1-methyl-D-tryptophan] (50 nM)",
    "Tested On": "MDA-MB-453",
    "Observed Property": "normalised response",
    "Measurement Units": "%",
    "Observed Result": 105
  },
  {
    "Compound": "COc1cc2c(N3CCN(C(=O)Nc4ccc(OC(C)C)cc4)CC3)ncnc2cc1OCCCN1CCCCC1 [Tandutinib] (100 nM)",
    "Tested On": "MDA-MB-453",
    "Observed Property": "normalised response",
    "Measurement Units": "%",
    "Observed Result": 106
  }
]

----------
System: BT-549
Assay: normalised response (% of control), CellTiter-Glo; higher = more viable cells (100 = DMSO, 0 = benzethonium chloride kill control)
Settings: incubation time: 72 h
Entries annotated with measured normalised response

[
  {
    "Compound": "C[C@@H](C(=O)O)c1ccc(-c2ccccc2)c(F)c1 [Tarenflurbil] (1000 nM)",
    "normalised response": "99.3%"
  },
  {
    "Compound": "COc1cc2c(cc1-c1c(C)noc1C)ncc1[nH]c(=O)n([C@H](C)c3ccccn3)c12 [I-BET151] (1 nM)",
    "normalised response": "99.7%"
  },
  {
    "Compound": "Cn1nnc2c(C(N)=O)ncn2c1=O [Temozolomide] (1000 nM)",
    "normalised response": "101%"
  },
  {
    "Compound": "NC(=O)NO [Hydroxyurea] (100 nM)",
    "normalised response": "97.7%"
  },
  {
    "Compound": "CC/C(=C(\\c1ccccc1)c1ccc(OCCN(C)C)cc1)c1ccccc1 [Tamoxifen] (1000 nM)",
    "normalised response": "96.1%"
  },
  {
    "Compound": "Cn1cc(C[C@@H](N)C(=O)O)c2ccccc21 [1-methyl-D-tryptophan] (0.5 nM)",
    "normalised response": "101%"
  },
  {
    "Compound": "Cc1cc2c(F)c(Oc3ncnn4cc(OC[C@@H](C)O)c(C)c34)ccc2[nH]1 [Brivanib] (1 nM)",
    "normalised response": "95.2%"
  },
  {
    "Compound": "O=C(c1cc(Cc2n[nH]c(=O)c3ccccc23)ccc1F)N1CCN(C(=O)C2CC2)CC1 [Olaparib] (1 nM)",
    "normalised response": "103%"
  },
  {
    "Compound": "CO[C@H]1C[C@@H]2CC[C@@H](C)[C@@](O)(O2)C(=O)C(=O)N2CCCC[C@H]2C(=O)O[C@H]([C@H](C)C[C@@H]2CC[C@@H](O)[C@H](OC)C2)CC(=O)[C@H](C)/C=C(\\C)[C@@H](O)[C@@H](OC)C(=O)[C@H](C)C[C@H](C)/C=C/C=C/C=C/1C [Sirolimus] (0.1 nM)",
    "normalised response": "89.9%"
  },
  {
    "Compound": "C[C@@H]1C[C@H]2[C@@H]3CCC4=CC(=O)C=C[C@]4(C)[C@@]3(F)[C@@H](O)C[C@]2(C)[C@@]1(O)C(=O)CO [Dexamethasone] (10 nM)",
    "normalised response": "97.4%"
  },
  {
    "Compound": "CC/C(=C(\\c1ccccc1)c1ccc(OCCN(C)C)cc1)c1ccccc1 [Tamoxifen] (10 nM)",
    "normalised response": "91.8%"
  },
  {
    "Compound": "COc1cc2c(cc1-c1c(C)noc1C)ncc1[nH]c(=O)n([C@H](C)c3ccccn3)c12 [I-BET151] (10 nM)",
    "normalised response": "91.9%"
  },
  {
    "Compound": "CC(C)(C)Cn1c(N)nc2ccc(-c3[nH]c(C(C)(C)C)nc3-c3ccc(F)cc3)nc21 (1 nM)",
    "normalised response": "103%"
  },
  {
    "Compound": "CN1CCN(c2nc(C3=C(c4c[nH]c5ccccc45)C(=O)NC3=O)c3ccccc3n2)CC1 [Sotrastaurin] (10 nM)",
    "normalised response": "94.6%"
  },
  {
    "Compound": "CCCCCOC(=O)Nc1nc(=O)n([C@@H]2O[C@H](C)[C@@H](O)[C@H]2O)cc1F [Capecitabine] (10 nM)",
    "normalised response": "93.2%"
  }
]
